molecular target: CD28 (human) (UniProt P10747); assay: flow cytometry, transfected cells
Consider the following binders; for each one, report its MFI.
Answers are plain numbers, in MFI.

Past entries and their recorded results:
{"BINDER": "ICOSL-Fc N52S/N57Y/Q100V (Fc fusion) DTQEKEVRAMVGSDVELSCACPEGSRFDLNDVYVYWQTSESKTVVTYHIPQSSSLEYVDSRYRNRALMSPAGMLRGDFSLRLFNVTPQDEQKFHCLVLSVSLGFQEVLSVEVTLHVAANFSVPVVSAPHSPSQDELTFTCTSINGYPRPNVYWINKTDNSLLDQALQNDTVFLNMRGLYDVVSVLRIARTPSVNIGCCIENVLLQQNLTVGSQTGNDIGERDKITENPVSTGEKNAAT", "EXPERIMENTAL READOUT": "MFI", "VALUE REPORTED": 126000}
{"BINDER": "ICOSL ECD-Fc N119Q/N168Q (Fc fusion) DTQEKEVRAMVGSDVELSCACPEGSRFDLNDVYVYWQTSESKTVVTYHIPQNSSLENVDSRYRNRALMSPAGMLRGDFSLRLFNVTPQDEQKFHCLVLSQSLGFQEVLSVEVTLHVAAQFSVPVVSAPHSPSQDELTFTCTSINGYPRPNVYWINKTDNSLLDQALQQDTVFLNMRGLYDVVSVLRIARTPSVNIGCCIENVLLQQNLTVGSQTGNDIGERDKITENPVSTGEKNAAT", "EXPERIMENTAL READOUT": "MFI", "VALUE REPORTED": 2530}

Next up:
For the binder shown here, ICOSL-Fc N52R/N57F/Q100T (Fc fusion) DTQEKEVRAMVGSDVELSCACPEGSRFDLNDVYVYWQTSESKTVVTYHIPQRSSLEFVDSRYRNRALMSPAGMLRGDFSLRLFNVTPQDEQKFHCLVLSTSLGFQEVLSVEVTLHVAANFSVPVVSAPHSPSQDELTFTCTSINGYPRPNVYWINKTDNSLLDQALQNDTVFLNMRGLYDVVSVLRIARTPSVNIGCCIENVLLQQNLTVGSQTGNDIGERDKITENPVSTGEKNAAT , give the reported MFI. 127000
